conditions: buffer; pH 7.4; 200.0 µM
Classification field: enter criterion met for solubility kinetic values not below 4 µg/mL, criterion not met for values below it.

- MOLECULE: "CCOC(=O)C(=O)Nc1ccccc1C(=O)OC"
  LABEL CLASS: "criterion met"
- MOLECULE: "Cc1nc(-c2ccc(NC(=O)C3CC3)cc2)cs1"
  LABEL CLASS: "criterion met"
- MOLECULE: "CCC(=O)Nc1ccc2c(c1)nc(CN1CCCCC1)n2C"
  LABEL CLASS: "criterion met"
- MOLECULE: "O=C(CCSCc1ccc(Cl)cc1)NCc1ccco1"
  LABEL CLASS: "criterion met"
- MOLECULE: "Cc1cc(C)cc(NC(=O)CN2CCN(c3ccccn3)CC2)c1"
  LABEL CLASS: "criterion not met"
- MOLECULE: "CC1CN(CC(=O)Nc2ccc(Br)cn2)CC(C)O1 (stereo not drawn)"
  LABEL CLASS: "criterion met"
- MOLECULE: "CC(OC(=O)c1ccco1)C(=O)Nc1nc(-c2ccccc2)cs1 (stereo not drawn)"
  LABEL CLASS: "criterion met"
- MOLECULE: "O=S(=O)(/C=C/c1ccccc1)N1CCNCC1"
  LABEL CLASS: "criterion met"
- MOLECULE: "Nc1cc(Cl)ccc1C(=O)OCC(=O)NCC1CCCO1 (stereo not drawn)"
  LABEL CLASS: "criterion met"
- MOLECULE: "N#Cc1c(Cl)cccc1N1CCCC1"
  LABEL CLASS: "criterion not met"
- MOLECULE: "COc1ccc(NC(=O)[C@@H]2CCCN2S(=O)(=O)c2ccc(Cl)cc2)cc1"
  LABEL CLASS: "criterion met"
- MOLECULE: "Cc1ccccc1C(=O)OC(C)CN1CCN(C)CC1.Cl (stereo not drawn)"
  LABEL CLASS: "criterion met"
- MOLECULE: "Cc1c[n+](CC(=O)c2ccccc2)c(C)cn1.[Br-]"
  LABEL CLASS: "criterion met"

---

details: buffer; pH 7.4; 200.0 µM

- MOLECULE: "O=C(CCNC(=O)c1ccccc1)Nc1cccnc1"
  RESULT MODIFIER: ">"
  solubility kinetic (µg/mL): 40.4
- MOLECULE: "O=C(CCSCc1ccccc1F)NCc1cccs1"
  RESULT MODIFIER: ">"
  solubility kinetic (µg/mL): 46.4
- MOLECULE: "N#Cc1cc([N+](=O)[O-])ccc1NC(=O)COC(=O)CN1C(=O)C2CCCCC2C1=O (stereo not given)"
  RESULT MODIFIER: ">"
  solubility kinetic (µg/mL): 62.2
- MOLECULE: "OC1CCCN(CC(O)c2ccccc2)C1 (stereo not given)"
  RESULT MODIFIER: "="
  solubility kinetic (µg/mL): 25
- MOLECULE: "CN(C)/C=C(\\C#N)S(=O)(=O)c1ccc(Cl)cc1"
  RESULT MODIFIER: "="
  solubility kinetic (µg/mL): 37.7
- MOLECULE: "Nc1nc(NCCOCCO)nc(NCc2ccccc2)c1[N+](=O)[O-]"
  RESULT MODIFIER: ">"
  solubility kinetic (µg/mL): 52.3
- MOLECULE: "NC(=O)c1ccc(CSc2nc3ccccc3s2)cc1"
  RESULT MODIFIER: "="
  solubility kinetic (µg/mL): 1.4
- MOLECULE: "CCc1ccccc1NC(=O)c1cc(C)no1"
  RESULT MODIFIER: ">"
  solubility kinetic (µg/mL): 34.5
- MOLECULE: "CCOC(=O)c1cc(C#N)c(C)nc1N(CC)CC"
  RESULT MODIFIER: "="
  solubility kinetic (µg/mL): 16.4
- MOLECULE: "CC(=O)Nc1ccc(NC(=O)Nc2cc(C)cc(C)c2)cc1"
  RESULT MODIFIER: "="
  solubility kinetic (µg/mL): 0.8
- MOLECULE: "Cc1ccc(S(=O)(=O)/N=C/c2c(O)ccc3ccccc23)cc1"
  RESULT MODIFIER: "="
  solubility kinetic (µg/mL): 30.8
- MOLECULE: "C[C@H](C(=O)NCc1ccccc1)C(=O)c1ccccc1"
  RESULT MODIFIER: ">"
  solubility kinetic (µg/mL): 40.1
- MOLECULE: "Cc1cccc2c3nc4ccccc4nc3n(C)c12"
  RESULT MODIFIER: "<"
  solubility kinetic (µg/mL): 0.2
- MOLECULE: "Cc1ccccc1-c1noc(-c2ccccc2C(=O)O)n1"
  RESULT MODIFIER: ">"
  solubility kinetic (µg/mL): 42
- MOLECULE: "S=C(Nc1nc2c(s1)CCCC2)NC1CC1"
  RESULT MODIFIER: "="
  solubility kinetic (µg/mL): 5.7
- MOLECULE: "CN1CC(=O)N2[C@H](c3ccc4c(c3)OCO4)c3[nH]c4ccccc4c3C[C@@H]2C1=O"
  RESULT MODIFIER: "="
  solubility kinetic (µg/mL): 3.2
- MOLECULE: "COc1ccc(OC)c(NC(=O)Cc2cccs2)c1"
  RESULT MODIFIER: "="
  solubility kinetic (µg/mL): 30.4
- MOLECULE: "Clc1ccc(-c2csc(N3CCCCCC3)n2)cc1"
  RESULT MODIFIER: "<"
  solubility kinetic (µg/mL): 0.3
- MOLECULE: "O=C(CNC(=O)c1cccs1)c1ccc(Cl)cc1"
  RESULT MODIFIER: "="
  solubility kinetic (µg/mL): 26.4
- MOLECULE: "Brc1ccc(C2=CSC3=NCCN23)cc1"
  RESULT MODIFIER: "="
  solubility kinetic (µg/mL): 28.9
- MOLECULE: "Nc1ccc(OCCc2ccccc2)cc1"
  RESULT MODIFIER: "="
  solubility kinetic (µg/mL): 28.3
- MOLECULE: "COc1ccc(NC(=S)N2CCc3ccccc32)cc1OC"
  RESULT MODIFIER: ">"
  solubility kinetic (µg/mL): 47.2
- MOLECULE: "CC(=O)Nc1ccc(NC(=O)c2ccc(OCc3c(C)noc3C)cc2)cc1"
  RESULT MODIFIER: "="
  solubility kinetic (µg/mL): 2.2
- MOLECULE: "C#CCn1c2ccccc2c2nc3ccccc3nc21"
  RESULT MODIFIER: "<"
  solubility kinetic (µg/mL): 0.2
- MOLECULE: "Cc1ccc(O)c(NC(=S)NC(=O)C(C)C)c1"
  RESULT MODIFIER: ">"
  solubility kinetic (µg/mL): 37.8
- MOLECULE: "CC(C)COC(=O)c1ccc(N2C(=O)c3ccccc3C2=O)cc1"
  RESULT MODIFIER: "="
  solubility kinetic (µg/mL): 2.1
- MOLECULE: "COc1ccc(NC(=O)c2c(F)cccc2Cl)cc1S(=O)(=O)N1CCOCC1"
  RESULT MODIFIER: ">"
  solubility kinetic (µg/mL): 64.3
- MOLECULE: "COc1cccc(CN(C)S(=O)(=O)c2cccs2)c1"
  RESULT MODIFIER: "="
  solubility kinetic (µg/mL): 25.1
- MOLECULE: "O=C(CCC1CCN(Cc2ccccc2Cl)CC1)NC1CC1"
  RESULT MODIFIER: ">"
  solubility kinetic (µg/mL): 48.1
- MOLECULE: "O=C(Nc1ccc(Cl)cc1)N1CCCC(Cn2cccc2)C1 (stereo not given)"
  RESULT MODIFIER: ">"
  solubility kinetic (µg/mL): 47.7
- MOLECULE: "COc1ccc(C(=O)OCc2c(C)noc2C)cc1"
  RESULT MODIFIER: ">"
  solubility kinetic (µg/mL): 39.2
- MOLECULE: "CCc1ccccc1NS(=O)(=O)c1cccc2nsnc12"
  RESULT MODIFIER: "="
  solubility kinetic (µg/mL): 44.8
- MOLECULE: "CC(C)c1ccc(CNc2ccc3c(c2)ncn3C)cc1"
  RESULT MODIFIER: "="
  solubility kinetic (µg/mL): 22
- MOLECULE: "O=C(Nc1nonc1-c1ccc(F)cc1)c1ccco1"
  RESULT MODIFIER: ">"
  solubility kinetic (µg/mL): 41
- MOLECULE: "COCCn1c(C)cc(O)c(C(=O)Nc2cccc(Cl)c2)c1=O"
  RESULT MODIFIER: "<"
  solubility kinetic (µg/mL): 0.4
- MOLECULE: "Cc1ccc(C(=O)NC2CCCCCCC2)c(Cl)c1"
  RESULT MODIFIER: "="
  solubility kinetic (µg/mL): 3.2
- MOLECULE: "Cc1cccc(OCCCC(=O)Nc2nccs2)c1C"
  RESULT MODIFIER: "="
  solubility kinetic (µg/mL): 1.5
- MOLECULE: "CCOc1ccccc1C(=O)NCC(=O)OCC(=O)N1CCCC1"
  RESULT MODIFIER: ">"
  solubility kinetic (µg/mL): 50.2
- MOLECULE: "O=C(/C=C/c1ccco1)Nc1cccnc1Cl"
  RESULT MODIFIER: "="
  solubility kinetic (µg/mL): 33
- MOLECULE: "Cc1ccc(SCCC(=O)OC(C(=O)NC(N)=O)C(C)C)cc1 (stereo not given)"
  RESULT MODIFIER: "="
  solubility kinetic (µg/mL): 7
